Ref: the OPERA property sets (Mansouri et al. 2018)

Where a SMILES comes first, the peptide text is derived from it.
logP values by entry
Please give only the number in your answer, with no unit.

// `FC(F)(F)c1ccccc1CNc1[nH]cnc2ncnc1-2` : logP value = 3.04

// OC(CNC1CCCC1)CON=C(C1CC1)C1CC1 (stereo unspecified) : logP value = 2.46

// CC(C)CC(NC(=O)CNC(=O)C(NC(=O)C(Cc1ccccc1)NC(=O)C(N)C(C)C)C(C)C)C(=O)O (stereo unspecified) (H-VFVGL-OH; configuration not given here) : logP value = -0.97

// `NC(=O)Cc1c[nH]c2ccccc12` : logP value = 0.75

Next:
// `Cc1cc(=O)oc2c1ccc1occ(C)c12` : logP value = 3.08

// `CCOP(=O)(OCC)C(Cl)(Cl)P(=O)(OCC)OCC` : logP value = 1.31
